Where these numbers come from: patent US11505536B2

- Test system: MOLM-13 cells (human acute myeloid leukemia cells)
- Protocol Summary: MOLM-13 Cellular Assay
- Assay type: cell-based
- Stated Conditions: Homo sapiens, MOLM-13, 72 h, 72 hours exposure, cell viability by CellTiter-Glo
A collection of molecules and their measured IC50
Report the figure in nM without appending any unit label.

Past entries and their recorded results:
Molecule: CCn1c(CO)nn(-c2cc3c(C(C)C)cn(-c4cc(OC)ncc4F)c(=O)c3cc2F)c1=O [Example 91]
Test System: MOLM-13 cells (human acute myeloid leukemia cells)
IC50 (nM): 30
//
Molecule: CCn1c(CO)nn(-c2cc3c(C4(C)CC4)cn(-c4c(F)cccc4Cl)c(=O)c3cc2F)c1=O [Example 58]
Test System: MOLM-13 cells (human acute myeloid leukemia cells)
IC50 (nM): 4
//
Molecule: C=C(C)c1cn(-c2c(F)cccc2Cl)c(=O)c2cc(F)c(-n3nc(CO)n(CC)c3=O)nc12 [Example 35]
Test System: MOLM-13 cells (human acute myeloid leukemia cells)
IC50 (nM): 1
//
Molecule: CCn1c(CO)nn(-c2cc3c(C(C)C)cn(-c4nc(OC)ccc4F)c(=O)c3cc2F)c1=O [Example 96]
Test System: MOLM-13 cells (human acute myeloid leukemia cells)
IC50 (nM): 9
//
Molecule: C=C(C)c1cn(-c2c(C)cnc(OC)c2C)c(=O)c2cc(F)c(-n3nc(CO)n(CC)c3=O)cc12 [Example 71]
Test System: MOLM-13 cells (human acute myeloid leukemia cells)
IC50 (nM): 10

Summary for this molecule, CCC(COC)n1cc(C(C)C)c2cc(-n3nc(CO)n(CC)c3=O)c(F)cc2c1=O (stereo not shown) [Example 116] : IC50 is 20

Summary for this molecule, CCn1c(CO)nn(-c2cc3c(C(C)C)cn([C@H]4CCC[C@@H]4C)c(=O)c3cc2F)c1=O (stereo in doubt) [Example 124] : IC50 is 0.9
